- Tested on: Pseudomonas aeruginosa
- Method Summary: Antimicrobial activity against Pseudomonas aeruginosa
- Type: functional, organism-based
Attribute Measured: IC50
Please give the number followed by its unit.

Data request: Form: Entry = CCC(C)CCCCC(=O)N[C@@H](CC=O)C(=O)N[C@H](C(=O)N[C@@H](CC=O)C(=O)N[C@H]1CCNC(=O)[C@H]([C@@H](C)O)NC(=O)[C@H](CC=O)NC(=O)[C@H](CC=O)NC(=O)[C@H](CC(C)C)NC(=O)[C@@H](Cc2ccccc2)NC(=O)[C@H](CC=O)NC1=O)[C@@H](C)O (some centres undefined) | System = Pseudomonas aeruginosa | IC50 = ____
Data returned: 70 µg/mL

Data request: Moving on to CCC(C)CCCCC(=O)N[C@@H](CCNC=O)C(=O)N[C@H](C(=O)N[C@@H](CCNC=O)C(=O)N[C@H]1CCNC(=O)[C@H]([C@@H](C)O)NC(=O)[C@H](CCNC=O)NC(=O)[C@H](CCNC=O)NC(=O)[C@H](CC(C)C)NC(=O)[C@@H](Cc2ccccc2)NC(=O)[C@H](CCN)NC1=O)[C@@H](C)O (some centres undefined)
Data returned: 42 µg/mL

Data request: Moving on to CCC(C)CCCCC(=O)N[C@@H](CCNC=O)C(=O)N[C@H](C(=O)N[C@@H](CCNC=O)C(=O)N[C@H]1CCNC(=O)[C@H]([C@@H](C)O)NC(=O)[C@H](CCN)NC(=O)[C@H](CCN)NC(=O)[C@H](CC(C)C)NC(=O)[C@@H](Cc2ccccc2)NC(=O)[C@H](CCN)NC1=O)[C@@H](C)O (some centres undefined)
Data returned: 4.2 µg/mL

Data request: Moving on to CCC(C)CCCCC(=O)N[C@@H](CCNC(N)=O)C(=O)N[C@H](C(=O)N[C@@H](CCNC(N)=O)C(=O)N[C@H]1CCNC(=O)[C@H]([C@@H](C)O)NC(=O)[C@H](CCNC(N)=O)NC(=O)[C@H](CCNC(N)=O)NC(=O)[C@H](CC(C)C)NC(=O)[C@@H](Cc2ccccc2)NC(=O)[C@H](CCN)NC1=O)[C@@H](C)O (some centres undefined)
Data returned: 80 µg/mL

* * *

- Tested on: Escherichia coli
- Method Summary: Antimicrobial activity against Escherichia coli assessed as relative sensitizing activity
- Type: functional
Attribute Measured: Activity (%)
All answers are understood in %, so give the number only.

Data request: Form: Entry = CC(C)C[C@@H]1NC(=O)[C@@H](Cc2ccccc2)NC(=O)[C@H](CCCCN)NC(=O)[C@@H](NC(=O)[C@H](CCCCN)NC(=O)[C@@H](N)[C@@H](C)O)CCNC(=O)[C@@H]([C@H](C)O)NC(=O)[C@H](CCN)NC(=O)[C@H](CCN)NC1=O | System = Escherichia coli | Activity = ____
Data returned: 9

Data request: Moving on to CC(C)C[C@@H]1NC(=O)[C@@H](Cc2ccccc2)NC(=O)[C@H](CCCCN)NC(=O)[C@@H](NC(=O)[C@H](CCCCN)NC(=O)[C@@H](N)[C@@H](C)O)CCNC(=O)[C@H]([C@@H](C)O)NC(=O)[C@H](CCCCN)NC(=O)[C@H](CCCCN)NC1=O
Data returned: 5

Data request: Moving on to CC(C)C[C@@H]1NC(=O)[C@@H](Cc2ccccc2)NC(=O)[C@H](CCN)NC(=O)[C@@H](NC(=O)[C@H](CCN)NC(=O)[C@@H](N)[C@@H](C)O)CCNC(=O)[C@H]([C@@H](C)O)NC(=O)[C@H](CCN)NC(=O)[C@H](CCN)NC1=O (stereo in doubt; 202) [POLYMYXIN B NONAPEPTIDE]
Data returned: 5

Data request: Moving on to CC(C)C[C@@H]1NC(=O)[C@@H](Cc2ccccc2)NC(=O)[C@H](CCN)NC(=O)[C@@H](NC(=O)[C@H](CCN)NC(=O)[C@@H](N)[C@@H](C)O)CCNC(=O)[C@H]([C@@H](C)O)NC(=O)[C@H](CCCCN)NC(=O)[C@H](CCCCN)NC1=O
Data returned: 40
